The reported measurements were obtained from ChEMBL document CHEMBL1139321.

Disintegrin and metalloproteinase domain-containing protein 17 (Homo sapiens) measurements of pKi, listed per entry.
Sequence (P78536 whole entry, the tested form may be a part): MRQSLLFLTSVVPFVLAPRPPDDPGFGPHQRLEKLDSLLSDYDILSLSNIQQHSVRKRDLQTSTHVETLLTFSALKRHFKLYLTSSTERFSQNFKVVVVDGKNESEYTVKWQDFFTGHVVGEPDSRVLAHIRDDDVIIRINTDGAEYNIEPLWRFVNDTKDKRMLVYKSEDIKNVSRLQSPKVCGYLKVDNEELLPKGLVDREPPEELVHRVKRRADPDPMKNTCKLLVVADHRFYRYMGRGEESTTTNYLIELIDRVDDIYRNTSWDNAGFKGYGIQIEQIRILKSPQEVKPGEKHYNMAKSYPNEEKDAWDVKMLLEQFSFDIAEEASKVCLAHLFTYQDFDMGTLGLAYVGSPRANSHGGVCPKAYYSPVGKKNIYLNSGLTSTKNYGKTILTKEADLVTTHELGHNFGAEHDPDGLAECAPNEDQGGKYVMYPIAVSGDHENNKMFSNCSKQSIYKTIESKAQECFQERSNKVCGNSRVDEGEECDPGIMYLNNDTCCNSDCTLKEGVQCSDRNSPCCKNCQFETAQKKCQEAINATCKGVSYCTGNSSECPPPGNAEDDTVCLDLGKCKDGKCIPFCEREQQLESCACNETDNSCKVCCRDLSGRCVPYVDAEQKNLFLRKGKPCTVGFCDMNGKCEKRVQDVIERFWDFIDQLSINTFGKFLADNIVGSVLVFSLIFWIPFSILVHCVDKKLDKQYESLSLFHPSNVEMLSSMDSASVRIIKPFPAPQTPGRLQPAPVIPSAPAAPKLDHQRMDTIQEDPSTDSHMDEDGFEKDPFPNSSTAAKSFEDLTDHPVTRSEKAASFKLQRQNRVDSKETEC
One number for each entry, as −log10 of the molar value.

Examples from the recorded data:
Cc1cc(COc2ccc(C3C[C@@]4(C[C@@H]4C(=O)O)C(=O)N3)cc2)c2ccccc2n1 (mixture of isomers)	5.51
O=C(NO)[C@H]1C[C@@]12CC(c1ccc(OCc3cc(-c4ccccc4)nc4ccccc34)c(F)c1)NC2=O (mixture of isomers)	8.17

I have 3 molecules here; please give me pKi for each one.
1. O=C(O)[C@H]1C[C@@]12CC(c1ccc(OCc3cc(-c4ccccc4)nc4ccccc34)cc1)NC2=O (mixture of isomers)
2. O=C(NO)[C@H]1C[C@@]12CC(c1ccc(OCc3cc(-c4cccnc4)nc4ccccc34)cc1)NC2=O (mixture of isomers)
3. O=C(O)[C@H]1C[C@@]12CC(c1ccc(OCc3cc(-c4ccncc4)nc4ccccc34)cc1)NC2=O (mixture of isomers)

Output:
6.84
7.49
6.17

I have 6 molecules here; please give me pKi for each one.
1. O=C(NO)[C@H]1C[C@@]12CC(c1ccc(OCc3cc(C(F)(F)F)nc4ccccc34)cc1)NC2=O (mixture of isomers)
2. CN1C(=O)[C@@]2(CC1c1ccc(OCc3cc(-c4ccccc4)nc4ccccc34)c(F)c1)C[C@@H]2C(=O)O (mixture of isomers)
3. Cc1cc(COc2ccc(C3C[C@@]4(C[C@@H]4C(=O)NO)C(=O)N3)cc2)c2ccccc2n1 (stereo not given in full)
4. O=C(O)[C@H]1C[C@@]12CC(c1ccc(OCc3cc(C(F)(F)F)nc4ccccc34)cc1)NC2=O (mixture of isomers)
5. O=C(NO)[C@H]1C[C@@]12CC(c1ccc(OCc3cc(-c4ccccc4)nc4ccccc34)cc1)NC2=O (mixture of isomers)
6. CN1C(=O)[C@@]2(CC1c1ccc(OCc3cc(-c4ccccc4)nc4ccccc34)c(F)c1)C[C@@H]2C(=O)NO (mixture of isomers)

Output:
7.28
7.03
7.49
5.67
7.52
6.86

I have 3 molecules here; please give me pKi for each one.
1. O=C(O)[C@H]1C[C@@]12CC(c1ccc(OCc3cc(-c4cccnc4)nc4ccccc34)cc1)NC2=O (mixture of isomers)
2. O=C(NO)[C@H]1C[C@@]12CC(c1ccc(OCc3cc(-c4ccncc4)nc4ccccc34)cc1)NC2=O (stereo not given in full)
3. O=C(O)[C@H]1C[C@@]12CC(c1ccc(OCc3cc(-c4ccccc4)nc4ccccc34)c(F)c1)NC2=O (mixture of isomers)

Output:
1. 5.49
2. 7.48
3. 7.40
